- assay.system: androgen receptor (AR) (Homo sapiens)
- assay.protocol: MDA-MB-453 Androgen Receptor Transactivation Assay (PSA-Luc reporter, 3 nM DHT)
- Assay type: cell-based
- assay.setup: MDA-MB-453 cells, antagonism in presence of 3 nM DHT, 48 hour incubation
readout: IC50 (nM)
Expressed in nM, but write only the number.

Look up IC50 with androgen receptor (AR) (Homo sapiens) for this molecule: C[C@@]12C[C@H](NS(=O)(=O)CC(F)(F)F)[C@]3(CCO[C@H]4[C@@H]3[C@@H]1C(=O)N4c1ccc(C#N)c(Cl)c1)O2
147

Look up IC50 with androgen receptor (AR) (Homo sapiens) for this molecule: C[C@]12O[C@@]3(CCO[C@H]4[C@@H]3[C@@H]1C(=O)N4c1ccc(C#N)c(C(F)(F)F)c1)C[C@H]2O (single isomer, unassigned)
177

Look up IC50 with androgen receptor (AR) (Homo sapiens) for this molecule: C[C@@]12C[C@H](O)[C@]3(CCO[C@H]4[C@@H]3[C@]1(C(=O)OCc1ccccc1)C(=O)N4c1ccc(C#N)c(C(F)(F)F)c1)O2
1200

Look up IC50 with androgen receptor (AR) (Homo sapiens) for this molecule: C[C@@]12C[C@H](O)[C@]3(CCO[C@H]4[C@@H]3[C@@H]1C(=O)N4c1ccc(C#N)c(Cl)c1)O2
183
